Tested on: ISC-enriched organoids
protocol: Primary screen, 384-well 2.5-D organoid differentiation (ENR+CD, 6 days): basal lysozyme secretion (LYZ.NS)
Format: cell-based, murine
measurement_setup: Dose 2.00 uM; primary screen, vs plate median
As shown below, each of these molecules has a reported Dose.FC.LYZ.NS (log 2 fold change) value.
// print number alone

Below, 5 molecules whose answers are already recorded.
molecule="Nc1ccc(C(=O)[O-])c(O)c1.[Na+] [Sodium 4-Aminosalicylate]" experimental_endpoint="Dose.FC.LYZ.NS (log 2 fold change)" observed_measurement=0.156
molecule=Oc1ccc(Nc2nc(-c3ccc(Cl)cc3)cs2)cc1 experimental_endpoint="Dose.FC.LYZ.NS (log 2 fold change)" observed_measurement=0.074
molecule=Cc1nn(-c2ccccc2)c(C)c1/C=N/N1CCN(Cc2ccccc2)CC1 experimental_endpoint="Dose.FC.LYZ.NS (log 2 fold change)" observed_measurement=0.175
molecule=O=S(=O)(c1ccccc1)c1cnc2c(N3CCNCC3)cccc2c1 experimental_endpoint="Dose.FC.LYZ.NS (log 2 fold change)" observed_measurement=0.069
molecule=Cc1cc(Nc2ccc(NC(=O)c3ccc(Nc4ccnc5ccccc45)cc3)cc2)nc(N)n1 experimental_endpoint="Dose.FC.LYZ.NS (log 2 fold change)" observed_measurement=0.129

Tell me its Dose.FC.LYZ.NS (log 2 fold change) given O=C(NNc1nc2cc(F)ccc2n2cccc12)c1cnccn1 as the entry.
−0.025

Tell me its Dose.FC.LYZ.NS (log 2 fold change) given O=C(Nc1ccccc1Br)N[C@@H]1CCN(c2ccc(C(F)(F)F)cn2)C1 as the entry.
−0.001

Tell me its Dose.FC.LYZ.NS (log 2 fold change) given O=C1NC(=O)/C(=C/c2cccc(C(F)(F)F)c2)S1 as the entry.
0.032

Tell me its Dose.FC.LYZ.NS (log 2 fold change) given COc1c(C)c(C(=O)c2ccc(N)c(C(=O)[O-])c2)n2ccccc12.[Na+] [SSR128129E] as the entry.
0.030

Tell me its Dose.FC.LYZ.NS (log 2 fold change) given CCOC(=O)c1ccc(N2NC(=O)/C(=C/c3ccc([N+](=O)[O-])o3)C2=O)cc1 as the entry.
0.065
